Experiment: protein stability index of a GFP-peptide fusion (GPS, HEK-293T) (PSI 1-6); higher = more stable;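 further: 24-mer peptide tiles fused after GFP, lentivirally expressed, FACS-sorted into six equal bins by GFP/DsRed ratio, decoded by Illumina sequencing, PSI is the read-weighted mean bin number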
Conditions: treatment: DMSO; c terminus: a fixed tail appended
Each entry gets f if its protein stability index stays under 4, and t if its protein stability index is 4 or above.

In: API: above_or_equal(metric=protein stability index, cutoff=4) for item GNDFTQNAGTGLVINQADVRNNRS [PLD5]
Out: t

* * *

Documented protein stability index across a set of sequences
Assay: protein stability index of a GFP-peptide fusion (GPS, HEK-293T) (PSI 1-6); higher = more stable
Details: treatment: DMSO; c terminus: a fixed tail appended
Write the value as a bare number.

Illustrative cases are given below, each with its answer.
Seq string	Measurement
LSSSCCHTVPDFHLSSPAKNFFKK [PLK2]	2.99
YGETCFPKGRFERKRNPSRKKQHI [ZNF24]	2.93

Could you now consider this next sequence?
In: Tell me its protein stability index given YNPDLKKVVEAHKIVLCAVSHVFM [RHOBTB3] as the entry.
Out: 2.95

* * *

Experiment: protein stability index of a GFP-peptide fusion (GPS, HEK-293T) (PSI 1-6); higher = more stable
Conditions: treatment: DMSO; c terminus: a fixed tail appended
Binning of protein stability index into classes: range 1 = under 3, range 2 = from 3 up to 4, range 3 = 4 and over

Previously resolved entries follow.
Seq string	Assigned label
SSTCGQLASYPLALVRTRMQAQAS [SLC25A25]	range 1
HHREGLLAIFKSGGIPALVKMLGS [CTNNB1]	range 1
LASRNTLFNLSNFLDKSGSHGYDM [SNAP91]	range 1
GFSCNQGRYPLIQTLRQELSLPYL [CHIT1]	range 1

Turning now to a further sequence:
In: Kindly state the category for this sequence: SVDIWAIGCVFAELLTGQPLWPGK [CDKL4]
Out: range 1

* * *

Listed here: items and their measured protein stability index.
Assay: protein stability index of a GFP-peptide fusion (GPS, HEK-293T) (PSI 1-6); higher = more stable
Conditions: treatment: MLN4924 1 uM, 8 h; c terminus: a fixed tail appended
In your answer, state the number alone without any accompanying words.

The cases that follow already have their protein stability index on record.
Seq string	protein stability index
PGLLSLATTSASDSLKPEQLDIEE [TFE3]	5.55
SNFEQTQIQEFKEAFTLMDQNRDG [MYL5]	4.93
LARKIASRNEFDRTIAETEAAYLK [SSNA1]	3.74
VSFLRSGTKLIFRRRPRQKEAGLS [C2CD2L]	3.1
PVPATAPSPAPAVAAAAAATTAAT [SNAP91]	5.25

The record that follows has no protein stability index shown yet.
In: Note down protein stability index recorded for RQRLAKNDRGDHYHWKDLNRGINI [EFHC1]
Out: 2.99

* * *

Experiment: protein stability index of a GFP-peptide fusion (GPS, HEK-293T) (PSI 1-6); higher = more stable
Conditions: treatment: MLN4924 1 uM, 8 h; c terminus: a fixed tail appended
// reported protein stability index for each item listed
Form rule: numeric answer, no unit written next to it.

Seq string	protein stability index
TTLDEFPLTRLGQLKACTNFDDIL [KCNG1]	2.92
GLSQAPQPLADEGPPGRSIGGAAP [SERTAD1]	5.29
VAARTPAVEGLTEAEEEELRAELT [TPD52L2]	5.26
QRIALRLGNGNDKKEMNKSDLNTN [KMT2E]	4.47
KKDNHALVRETDELRRNHCFQDFK [ELOA2]	4.03

In: Identify protein stability index associated with the sequence MSAAQGWDRNRRRGGGAAGAGGGG [KLHDC10]
Out: 4.92

In: Name the recorded protein stability index of the sequence listed here: PDGVWAYNRGEHPIFVNSPTLDAP [SMAD6]
Out: 3.62

In: Quick one: give measured protein stability index for DCSGLVLLCLFFGIPWEAGARQIS [PCDHGA10]
Out: 3.19

In: Provide protein stability index value for the following sequence: APVILVGCQLDLRYADLEAVNRAR [RHOBTB2]
Out: 2.45

In: Give protein stability index for the following sequence: IQGYRVYYTMDPTQHVNNWMKHNV [PTPRD]
Out: 2.44

In: Tell us which protein stability index value is on record for DLVQWTRHMEAVKAQLLEQAQGQL [SOAT2]
Out: 2.69

In: Supply recorded protein stability index for CQACRFMKCLKVGMLKEGVRLDRV [ESRRG] here.
Out: 2.04

In: Complete the entry with protein stability index for AIHYCASTSEESWTDSEVDSSCSG [SPDEF]
Out: 5.18

In: Fill in protein stability index for record SCRELLRIADKFTQHNFQEVMESE [KLHL20]
Out: 2.19

In: Given the sequence TRSCSSASSRSQQSSKRSSRSVED [CLK3] , write its reported protein stability index.
Out: 5.02

In: Consider the sequence GILRRILRTLRDFPAEERARVLDR [ANKRD9] and give its recorded protein stability index.
Out: 2.47

In: Please look at this sequence and report its protein stability index: LSGASPFLGETKQETLTNISAVNY [DAPK3]
Out: 3.85

In: State, in one line, measured protein stability index of ALCELLEKETQIIASIGRHRYIAY [IQUB]
Out: 2.16

In: Tell me its protein stability index given TSSNLGSQYQCENGVSGPSQDLLP [TBX5] as the entry.
Out: 4.6

In: Specify protein stability index for EMFLYFEDHGLVTCSADHLIILWK [WDR41] and stop.
Out: 2.68

In: Give the reported value of protein stability index for this record: DDVEVLTLKKFKGDLAYRRQEYQK [C8orf76]
Out: 3.92

In: Supply recorded protein stability index for KQMSFLEKRGCPRTALEYCKLILS [TCF25] here.
Out: 3.02

In: Quick one: give measured protein stability index for IFCEEHFPVAEQDKLLKHMIIEHK [ZNF277]
Out: 3.01

In: # return recorded protein stability index for entry ETCSCGYYLHPLPAGAEYCSSARH [SCNN1D]
Out: 3.63
